Parameter % Binding σ1 10^−8M: see the listing below.
assay system: σ1-receptor (Cavia porcellus, UniProt Q60492)
Construct: guinea pig brains are homogenized; from tissue; host or cells: guinea pig brain membranes
Sequence (Q60492 whole entry): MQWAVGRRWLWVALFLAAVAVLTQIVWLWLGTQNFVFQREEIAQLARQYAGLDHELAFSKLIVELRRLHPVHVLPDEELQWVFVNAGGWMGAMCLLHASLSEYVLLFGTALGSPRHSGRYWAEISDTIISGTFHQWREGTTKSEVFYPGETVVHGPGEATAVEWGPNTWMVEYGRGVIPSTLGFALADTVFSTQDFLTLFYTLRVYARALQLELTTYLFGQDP
test protocol: Sigma-1 receptor radioligand binding, [3H](+)-pentazocine, brain membranes
stated conditions: compound concentration 10^−8 M; [3H](+)-pentazocine 0.5 nM; guinea pig brain membranes
State the answer as a number, implicitly in %.

See these solved cases before continuing.
* CCOC(=O)[C@H](C)N1C[C@H]2C=C(c3ccccc3)C(=O)[C@H]2C1 | 25.6
* CCCCC1=C[C@@H]2CN([C@@H](C)C(=O)OCC)C[C@@H]2C1=O | 17.6
* COC(=O)[C@H](c1ccccc1)N1C[C@@H]2C=C(c3ccccc3)C(=O)[C@@H]2C1 | 24.8
* CCOC(=O)[C@H](C)N1C[C@@H]2C=C(c3ccccc3)C(=O)[C@@H]2C1 | 16.7
* COC(=O)[C@H](c1ccccc1)N1C[C@H]2C=C(c3ccccc3)C(=O)[C@H]2C1 | 28.0

Turning now to a further record.
The molecule listed as `CCCCC1=C[C@H]2CN([C@@H](C)C(=O)OCC)C[C@H]2C1=O` shows % Binding σ1 10^−8M equal to 28.8
